Procedure Details: refractive index (Na D-line) (dimensionless); xn = mol fraction of the nth substance listed
Measurement Parameters: 298.15 K; 100 kPa; Liquid; Standard Abbe refractometry; x1 = 0.1
Measure: refractive index

Molecule: CN1CCC[C@H]1c1cccnc1 [(-)-3-(N-methylpyrrolidino)pyridine] + CCC(C)O
refractive index: 1.41668

Molecule: CN1CCC[C@H]1c1cccnc1 [(-)-3-(N-methylpyrrolidino)pyridine] + CCCCO
refractive index: 1.41913

Molecule: CN1CCC[C@H]1c1cccnc1 [(-)-3-(N-methylpyrrolidino)pyridine] + OCCCO
refractive index: 1.4561

Molecule: CN1CCC[C@H]1c1cccnc1 [(-)-3-(N-methylpyrrolidino)pyridine] + CC(O)CO
refractive index: 1.44969
